- System: Sonic hedgehog protein (Shh)
- measurementNotes: small-molecule binders of Shh protein, primary screen, biochemical, small-molecule microarray, 635/667 nm fluorescence (AID 1151);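 also: Shh protein binding to compounds spotted on small-molecule microarray slides; score combines spot fluorescence intensity with signal-to-noise across triplicate slides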
- reportedConditions: small-molecule microarray binding, 635 nm fluorescence; higher = more signal
Classify as follows. Reported composite z-score greater than or equal to 1: YES. Reported composite z-score below: NO.

Reference set, count: 7
C=CCC(OC(C)=O)[C@@H]1[C@@H](N(Cc2cc3ccccc3o2)C(=O)c2ccc(-c3ccccc3)cc2)c2cc(OCCCO)ccc2N1C(=O)c1ccc(-c2ccccc2)cc1 (stereo partly drawn) | NO
CC(C)C(=C=CC[C@@H](O)c1ccc(CO)o1)CCO | YES
C=C(CCCC)/C(=C/C[C@@H](OC(=O)c1ccncc1)c1ccc(OCCO)cc1)c1cnc2ccccc2c1 | YES
C=CCNC(=O)[C@H]1[C@@H]2C(=O)O[C@@H](c3ccccc3)[C@@H](c3ccccc3)N2[C@@H](c2ccc(OCCO)cc2)[C@]12C(=O)Nc1ccc(C#CCCO)cc12 | YES
COc1ccc(C(=O)Nc2cccc(CN3C(=O)[C@@]4(O[C@@H](CCO)[C@H]([Si](C)(C)c5ccc(OC)cc5)[C@H]4C)c4ccccc43)c2)cc1 | NO
CCCC[C@@H](O)C1=C(C)C[C@H]2C(=O)N(C)C(=O)[C@H]2[C@H]1CO | YES
C[N+](C)(C)CCCC[C@@H]1NC(=O)[C@@H]2C[C@H](C(=O)NCCCCCNC(=O)CS)[C@H](c3ccc(O)cc3)N2C1=O | YES

In the following, a different compound is considered.
[ask] Is the recorded value of composite z-score equal to or greater than 1 for this compound? C=C(COC)C(=O)CC[C@H](OC(=O)c1ccccc1-c1ccccc1C(=O)O)c1ccccc1OCCO
[reply] YES

###

- measurementNotes: binders of probe aFST on microarray, primary screen, stem cell growth factor project, biochemical, small-molecule microarray, fluorescence 635/667 (AID 1086);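 also: score merges 667 nm fluorescence with signal-to-noise of each printed compound spot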
- reportedConditions: higher = more signal
Listed below: composite z-score values for each entry.
Please reply with the number alone, leaving off any unit.

Reference set (8 entries):
[N-]=[N+]=Nc1ccccc1[C@H]1OC(c2ccc(OCCCO)cc2)=N[C@@]1(Cc1ccccc1)C(N)=O | 1.42
COCCCNC(=O)[C@@]1(Cc2ccccc2CN=[N+]=[N-])COC(c2ccc(OCCCO)cc2)=N1 | 0.934
CCN(CC)c1ccc(N2CC=CC34O[C@@H]5C=CCOC(=O)[C@@H]5[C@H]3C(=O)N(C(C)CO)[C@@H]4C2=O)cc1 (some centres undefined) | -0.278
COCCOC(=O)N1C(=O)[C@@]2(c3cc(C#CCCO)ccc31)[C@H](c1ccccc1OCCO)N1[C@H](c3ccccc3)[C@H](c3ccccc3)OC(=O)[C@H]1[C@@H]2C(=O)NC[C@H](O)c1ccccc1 | 0.555
COC(=O)C1=CC(c2ccc(CO)cc2)=CC(C2CC2)N(C)C=C1C(=O)OC (centres undefined) | 0.0593
C=CCC(OC(C)=O)[C@@H]1[C@@H](N(Cc2cccc3ccccc23)C(=O)c2cccc3ccccc23)c2cc(OCCCO)ccc2N1C(=O)Cc1ccc(OC)cc1 (some centres undefined) | 0.03
CC(C)NC(=O)[C@@H]1c2ccccc2C(=O)N(Cc2cc(F)cc(C(F)(F)F)c2)[C@H]1c1ccc(CO)cc1 | 0.136
Cc1ccc(N2C(=O)c3ccccc3[C@](C)(C(=O)NC3CC3)[C@@H]2c2ccc(CO)cc2)nc1 | 0.406

[ask] Please look up its composite z-score: C=CC[C@]1(C(=O)N2CCCCC2)COC(c2ccc(OCCCO)cc2)=N1
[reply] -0.329

[ask] Please look up its composite z-score: CC(C)[Si](C#C[Si](C(C)C)(C(C)C)C(C)C)(O[C@H](C)c1cn([C@H](C)c2ccccc2)nn1)C(C)C
[reply] 0.25

[ask] Please look up its composite z-score: CCCCCN1CC=CC23O[C@@H]4/C=C\CCC(C)OC(=O)C4[C@H]2C(=O)N(CCO)[C@@H]3C1=O (some centres undefined)
[reply] -0.639

[ask] Please look up its composite z-score: CC(C)C(CO)N1C(=O)[C@@H]2C3C(=O)OCCC/C=C\[C@H]3OC23C=CCN(C(C)C)C(=O)[C@@H]13 (some centres undefined)
[reply] -0.381

[ask] Please look up its composite z-score: CO[C@H]1O[C@H](CO)[C@@H](OC(=O)Nc2ccccc2)[C@H](OC(=O)Nc2ccccc2-c2ccccc2)[C@@H]1OC(=O)Nc1ccccc1-c1ccccc1
[reply] 0.325

[ask] Please look up its composite z-score: O=C1c2ccccc2C(=O)c2cc([C@H]3Oc4ccccc4S(=O)(=O)N4CCC[C@@H]34)ccc21
[reply] -0.167

[ask] Please look up its composite z-score: CCCCC(=C=CC[C@H](O)c1cccc(OCCO)c1)CCO
[reply] -0.101

[ask] Please look up its composite z-score: C=CCC1(CC=C)C[C@H]2CO[C@H](c3ccc(OC)cc3)N2C1=O
[reply] 0.132

[ask] Please look up its composite z-score: COCCOC(=O)N1C(=O)[C@@]2(c3ccccc31)[C@H](C(=O)Nc1nc3ccccc3s1)[C@H]1C(=O)O[C@H](c3ccccc3)[C@H](c3ccccc3)N1[C@@H]2c1ccc(O)cc1
[reply] 0.442

[ask] Please look up its composite z-score: CC(C)C(=C=CC[C@@H](O)c1ccc(CO)o1)CCO
[reply] -0.304

[ask] Please look up its composite z-score: NCCCCCCNC(=O)[C@@H]1C[C@@H]2C(=O)N[C@@H](Cc3ccccc3)C(=O)N2[C@@H]1c1ccc(O)cc1
[reply] 0.422

[ask] Please look up its composite z-score: COC(=O)C1=CC(CCCO)=CC(C2CC2)N(Cc2cc3c(cc2Br)OCO3)C=C1C(=O)OC (centres undefined)
[reply] 0.796

[ask] Please look up its composite z-score: O=C(NCc1ccccc1)[C@@H]1c2ccccc2C(=O)N(Cc2ccccc2Cl)[C@H]1c1ccc(CO)cc1
[reply] 0.893

[ask] Please look up its composite z-score: CC(C)N1CC=CC23O[C@@H]4/C=C\CCCOC(=O)C4[C@H]2C(=O)N(CCCO)[C@@H]3C1=O (some centres undefined)
[reply] -0.623

[ask] Please look up its composite z-score: C=CCNC(=O)[C@@H]1[C@H]2C(=O)O[C@H](c3ccccc3)[C@H](c3ccccc3)N2[C@H](c2ccc(O)cc2)[C@@]12C(=O)Nc1ccccc12
[reply] -0.0542

[ask] Please look up its composite z-score: COC(=O)C(CC#Cc1ccc2c(c1)[C@]1(C(=O)N2)[C@H](c2ccccc2OCCO)N2[C@H](c3ccccc3)[C@H](c3ccccc3)OC(=O)[C@H]2[C@@H]1C(=O)N1CCCCCCC1)C(=O)OC
[reply] 3.71

[ask] Please look up its composite z-score: Cc1ccc(S[C@]2(C(=O)NCCN3CCOCC3)CC(=O)N(Cc3cc(C(F)(F)F)cc(C(F)(F)F)c3)[C@@H]2c2ccc(CO)cc2)cc1
[reply] -0.341

[ask] Please look up its composite z-score: COc1ccc([Si](C)(C)[C@@H]2[C@@H](CC(=O)N3CCC[C@H]3CO)O[C@]3(C(=O)N(Cc4ccc(N5CCC5=O)cc4)c4ccccc43)[C@H]2C)cc1
[reply] 0.187

[ask] Please look up its composite z-score: C=CCNC(=O)[C@H]1[C@@H]2C(=O)O[C@@H](c3ccccc3)[C@@H](c3ccccc3)N2[C@@H](c2ccccc2OCCO)[C@]12C(=O)N(C(=O)OCCOC)c1ccc(C#CCCO)cc12
[reply] 1.24

[ask] Please look up its composite z-score: C=CCC(OC(C)=O)[C@@H]1[C@@H](N(Cc2cccc3ccccc23)C(=O)Cc2ccc(OC)cc2)c2cc(OCCCO)ccc2N1C(=O)Cc1ccc(OC)cc1 (some centres undefined)
[reply] -0.0127

[ask] Please look up its composite z-score: C=C(CCCC)/C(=C/C[C@@H](OC(=O)c1ccncc1)c1ccc(OCCO)cc1)c1cnc2ccccc2c1
[reply] 0.265

###

- measurementNotes: small-molecule binders of probe aNOTCH3, primary screen, biochemical, small-molecule microarray, 635/667 nm fluorescence (AID 1120);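 also: probe is a biotin-tagged antibody raised against NOTCH3 rather than NOTCH3 protein; score merges spot fluorescence near 667 nm with spot signal to noise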
- reportedConditions: higher = more signal
measurementKind: composite z-score
Please reply with the number alone, leaving off any unit.

Reference set (2 entries):
CCCCC(=C=CC[C@H](O)c1cccc(OCCO)c1)CCO | -0.0699
COC(=O)C1=CC(CCCO)=CC(C2CC2)N(Cc2cc3c(cc2Br)OCO3)C=C1C(=O)OC (stereo not drawn) | 0.102

[ask] Please look up its composite z-score: CC(C)NC(=O)[C@@H]1c2ccccc2C(=O)N(Cc2cc(F)cc(C(F)(F)F)c2)[C@H]1c1ccc(CO)cc1
[reply] -0.402

[ask] Please look up its composite z-score: O=c1n(-c2ccccc2)c(=O)n2n1CC(COc1ccccc1)=C1[C@@H](CCc3ccccc3)OB(O)C[C@@H]12
[reply] 0.0596

[ask] Please look up its composite z-score: C=CC[C@@H](OC(=O)Nc1ccc(SC)cc1)c1ccc(OCCO)cc1
[reply] -0.267

[ask] Please look up its composite z-score: [N-]=[N+]=NCc1ccccc1C[C@]1(C(=O)NCc2ccccc2)N=C(c2ccc(OCCCO)cc2)O[C@H]1c1ccccc1
[reply] 0.2

[ask] Please look up its composite z-score: COc1ccc([Si](C)(C)[C@H]2[C@H](CCO)O[C@@]3(C(=O)N(Cc4ccc(N5C(=O)c6cccc7cccc5c67)cc4)c4ccccc43)[C@@H]2C)cc1
[reply] -0.214

[ask] Please look up its composite z-score: CCCNC(=O)[C@@]1(Sc2ccc(C)cc2)CC(=O)N(Cc2cc(C(F)(F)F)cc(C(F)(F)F)c2)[C@@H]1c1ccc(CO)cc1I
[reply] -0.125
